- system.under.test: PAX6 PD G73D (human, UniProt P26367 4-136, G73D)
- Sequence (P26367 4-136 G73D): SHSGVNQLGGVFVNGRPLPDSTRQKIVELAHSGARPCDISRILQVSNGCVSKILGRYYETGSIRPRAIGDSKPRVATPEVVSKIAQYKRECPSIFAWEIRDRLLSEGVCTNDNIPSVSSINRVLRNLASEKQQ
- measurement.protocol: ITC; ITC (iTC200) at 25 °C in buffer C (composition not given; protein stored in 25 mM Hepes pH 7.5, 150 mM NaCl, 5 mM b-ME); 20 uM protein in cell, 200 uM DNA in syringe, one-site model
- particulars: protein: recombinant; 5' overhang 2 nt on each strand (AA/TT), 24 bp
outcome.measure: pKd
Formally, pKd is defined as -log10 of the concentration c, with c in mol/L.

(Q) State its pKd for this binder: P6B (dsDNA) DNA 1: AAGCATTTTCACGCATGAGTGCACAG DNA 2: TTCTGTGCACTCATGCGTGAAAATGC
(A) 6.31

Just for reference, paper PMC7046147 is where these values come from.
